System: Sporothrix schenckii
Test: Antifungal activity against Sporothrix schenckii
Assay type: functional
Readout: MFC (µg/mL)
Output spec: scalar in µg/mL, unitless text.

Compound	Unit String	MFC
CCC(C)n1ncn(-c2ccc(N3CCN(c4ccc(OCC5COC(Cn6cncn6)(c6ccc(Cl)cc6Cl)O5)cc4)CC3)cc2)c1=O (stereo not given)	µg/mL	0.5

Now for another entry.
State MFC on Sporothrix schenckii. Entry: CC[C@@H]([C@H](C)O)n1ncn(-c2ccc(N3CCN(c4ccc(OC[C@@H]5CO[C@@](Cn6cncn6)(c6ccc(F)cc6F)C5)cc4)CC3)cc2)c1=O
0.5

====

Tested on: Cunninghamella
Assay: Antifungal activity against Cunninghamella species
Format: functional
# reported MFC; entries follow

Quick one: give measured MFC for CC[C@H](C)C[C@H](C)CCCCCCCCC(=O)N[C@H]1C[C@@H](O)[C@@H](NCCN)NC(=O)[C@@H]2[C@@H](O)CCN2C(=O)[C@H]([C@H](O)CCN)NC(=O)[C@H]([C@H](O)[C@@H](O)c2ccc(O)cc2)NC(=O)[C@@H]2C[C@@H](O)CN2C(=O)[C@H]([C@@H](C)O)NC1=O [CASPOFUNGIN]
> 8 µg/mL

Look up and state reported MFC for C[C@@H]1[C@H](O)[C@@H](C)/C=C/C=C/C=C/C=C/C=C/C=C/C=C/[C@H](O[C@@H]2O[C@H](C)[C@@H](O)[C@H](N)[C@@H]2O)C[C@@H]2O[C@](O)(C[C@@H](O)C[C@@H](O)[C@H](O)CC[C@@H](O)C[C@@H](O)CC(=O)O[C@H]1C)C[C@H](O)[C@H]2C(=O)O [AMPHOTERICIN B]
> 8 µg/mL

Please look at this compound and report its MFC: C[C@@H](c1ncncc1F)[C@](O)(Cn1cncn1)c1ccc(F)cc1F [VORICONAZOLE]
> 8 µg/mL

====

We begin with a simple list: items and their reported MFC.
Tested on: Aspergillus niger
Assay: Antifungal activity against Aspergillus niger
Assay type: functional

# annotated cases, reported MFC shown
Compound	MFC
C[C@@H]1[C@H](O)[C@@H](C)/C=C/C=C/C=C/C=C/C=C/C=C/C=C/[C@H](O[C@@H]2O[C@H](C)[C@@H](O)[C@H](N)[C@@H]2O)C[C@@H]2O[C@](O)(C[C@@H](O)C[C@@H](O)[C@H](O)CC[C@@H](O)C[C@@H](O)CC(=O)O[C@H]1C)C[C@H](O)[C@H]2C(=O)O	> 4 µg/mL
CCC(C)n1ncn(-c2ccc(N3CCN(c4ccc(OCC5COC(Cn6cncn6)(c6ccc(Cl)cc6Cl)O5)cc4)CC3)cc2)c1=O (stereo not drawn)	> 4 µg/mL

Now examine the next entry.
Print Aspergillus niger MFC for CC[C@H](C)C[C@H](C)CCCCCCCCC(=O)N[C@H]1C[C@@H](O)[C@@H](NCCN)NC(=O)[C@@H]2[C@@H](O)CCN2C(=O)[C@H]([C@H](O)CCN)NC(=O)[C@H]([C@H](O)[C@@H](O)c2ccc(O)cc2)NC(=O)[C@@H]2C[C@@H](O)CN2C(=O)[C@H]([C@@H](C)O)NC1=O .
> 8 µg/mL

====

System: Rhizopus arrhizus
Experiment: Antifungal activity against Rhizopus oryzae
Assay type: functional
Readout: MFC

Some compounds with known MFC results, for comparison:
Compound	MFC
CCC(C)n1ncn(-c2ccc(N3CCN(c4ccc(OCC5COC(Cn6cncn6)(c6ccc(Cl)cc6Cl)O5)cc4)CC3)cc2)c1=O (stereo not drawn)	> 8 µg/mL
C[C@@H](c1ncncc1F)[C@](O)(Cn1cncn1)c1ccc(F)cc1F	> 8 µg/mL

Determine reported MFC for CC[C@H](C)C[C@H](C)CCCCCCCCC(=O)N[C@H]1C[C@@H](O)[C@@H](NCCN)NC(=O)[C@@H]2[C@@H](O)CCN2C(=O)[C@H]([C@H](O)CCN)NC(=O)[C@H]([C@H](O)[C@@H](O)c2ccc(O)cc2)NC(=O)[C@@H]2C[C@@H](O)CN2C(=O)[C@H]([C@@H](C)O)NC1=O ; test system: Rhizopus arrhizus.
> 8 µg/mL
